System: Klebsiella pneumonia (1.1736)
Format: cell-based, Klebsiella pneumoniae
Ends that are not written are not given here.
READOUT LABEL: MIC K. pneumoniae (µM)
A number alone suffices; assume µM.

Q: Return reported MIC K. pneumoniae; argument: LKRVWKRVFKLLKRYWRKLKKPVR-NH2 [SAAP-10]
Ans: 25.00

Q: Which MIC K. pneumoniae value belongs to LKRVWKRVFKLLKRYWRQLKKKVR-NH2 [SAAP-12] ?
Ans: 100.00

Q: If you can, please state the reported MIC K. pneumoniae value of LKRVWKRKFKLLKRYWRQLKKPVR-NH2 [SAAP-4] .
Ans: 100.00

Q: MIC K. pneumoniae for LKRVWKRVFKLLKRKWRQLKKPVR-NH2 [SAAP-8] ?
Ans: 25.00

Q: Entry under review: LKRVWKRVFKLLKRYWRQKKKPVR-NH2 [SAAP-11] . Reported MIC K. pneumoniae?
Ans: 100.00

Q: Please report the recorded MIC K. pneumoniae for KKRVWKRVFKLLKRYWRQLKKPVR-NH2 [SAAP-1] .
Ans: 6.25

---

Tested on: human erythrocytes versus five bacterial strains
PROTOCOL DETAILS: Therapeutic index (MHC/GM of MIC)
CONDITION DETAILS: ratio of MHC to geometric mean of MIC (five strains)
Ends that are not written are not given here.
Would you mind telling me the reported TI (MHC/MIC) of each entry?
The response must contain the number and no unit.

Q: Any idea what TI (MHC/MIC) was measured for LKRVWKRVFKLLKRYWRQLKKKVR-NH2 [SAAP-12] ?
Ans: 0.04

Q: Report TI (MHC/MIC) for LKRVKKRVFKLLKRYWRQLKKPVR-NH2 [SAAP-3] please.
Ans: 8.00

Q: State the recorded TI (MHC/MIC) for this entry: LKRVWKRVFKLLKRYWRQLKKPVR-NH2 [SAAP-148]
Ans: 0.11

Q: Returns the measured TI (MHC/MIC) for the input substance. Input: LKRVWKRVFKLKKRYWRQLKKPVR-NH2 [SAAP-7]
Ans: 6.06

Q: TI (MHC/MIC) for LKRKWKRVFKLLKRYWRQLKKPVR-NH2 [SAAP-2] ?
Ans: 0.11

Q: I have this substance here, LKRVWKRVFKLLKRYWRKLKKPVR-NH2 [SAAP-10] , and I need its recorded TI (MHC/MIC).
Ans: 0.07

---

Please respond with reported Others for every item in the list.
PROTOCOL DETAILS: CD spectra, secondary structure by BeStSel
Assay type: physicochemical
CONDITION DETAILS: 30 μM SDS as printed, 100 μM peptide, 25 °C
Procedure: CD spectra (Figure S1) were acquired using a JASCO J-1500 spectropolarimeter (JASCO Inc., Easton, MD, USA) in 0.1 cm pathlength cells under nitrogen at 25 °C. The spectra were recorded in the range of 190 to 250 nm at a peptide concentration of 100 μM in SDS. Secondary structure was determined using the BeStSel server. Hydropathicity, mean relative hydrophobic moment, and charge of peptides were predicted using the HeliQuest (https://heliquest.ipmc.cnrs.fr/ (accessed on 12 March 2024)). […]
Ends that are not written are not given here.
Unit % implied. Number only.

Q: GET /values?readout=Others&item= LKRVWKRVFKLLKRYWRKLKKPVR-NH2 [SAAP-10]
Ans: 0

Q: For the substance shown here, LKRVWKRVFKLLKRKWRQLKKPVR-NH2 [SAAP-8] , give the reported Others.
Ans: 0

Q: Data request, read-out Others, for LKRVWKRVFKLLKRYWRQLKKKVR-NH2 [SAAP-12]
Ans: 0

Q: Fill in: Others of LKRVWKRVFKLLKRYWRQLKKPKR-NH2 [SAAP-13] is ___
Ans: 1.2

Q: Consider the substance LKRVWKRVKKLLKRYWRQLKKPVR-NH2 [SAAP-5] and give its measured Others.
Ans: 0

Q: Look up Others for this substance: LKRVWKRVFKLLKRYKRQLKKPVR-NH2 [SAAP-9]
Ans: 0

Q: GET /values?readout=Others&item= LKRVWKRVFKLKKRYWRQLKKPVR-NH2 [SAAP-7]
Ans: 3.4

Q: Sample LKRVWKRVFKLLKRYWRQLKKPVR-NH2 [SAAP-148] — what was its Others?
Ans: 0

Q: Fill in: Others of LKRVWKRKFKLLKRYWRQLKKPVR-NH2 [SAAP-4] is ___
Ans: 3.6

Q: Which Others value is on record for LKRVWKRVFKKLKRYWRQLKKPVR-NH2 [SAAP-6] ?
Ans: 0

Q: // returns reported Others for input LKRVKKRVFKLLKRYWRQLKKPVR-NH2 [SAAP-3]
Ans: 0

Q: // query Others value for entry LKRVWKRVFKLLKRYWRQKKKPVR-NH2 [SAAP-11]
Ans: 0

Q: Dear colleague, I am looking for the recorded Others of the following substance: LKRKWKRVFKLLKRYWRQLKKPVR-NH2 [SAAP-2]
Ans: 0

Q: Which measured Others value corresponds to KKRVWKRVFKLLKRYWRQLKKPVR-NH2 [SAAP-1] ?
Ans: 0

---

Test system: Staphylococcus epidermidis (1.4260)
Assay type: cell-based
Ends that are not written are not given here.
READOUT LABEL: MIC S. epidermidis (µM)
Write the answer as a number in µM, unit excluded.

Q: What does the data say about its MIC S. epidermidis? Entry: LKRVWKRVKKLLKRYWRQLKKPVR-NH2 [SAAP-5]
Ans: 3.13

Q: Returns the measured MIC S. epidermidis for the input substance. Input: LKRVWKRVFKLLKRYWRKLKKPVR-NH2 [SAAP-10]
Ans: 3.13

Q: MIC S. epidermidis lookup needed for LKRVKKRVFKLLKRYWRQLKKPVR-NH2 [SAAP-3] , thanks.
Ans: 3.13

Q: Fill blank: measured MIC S. epidermidis of the substance LKRVWKRVFKKLKRYWRQLKKPVR-NH2 [SAAP-6] is ____.
Ans: 1.56

Q: # query: MIC S. epidermidis of entry LKRVWKRVFKLLKRYWRQLKKKVR-NH2 [SAAP-12]
Ans: 6.25

Q: Quick one: MIC S. epidermidis for LKRVWKRVFKLLKRYWRQKKKPVR-NH2 [SAAP-11] ?
Ans: 3.13

Q: What does the record list as MIC S. epidermidis for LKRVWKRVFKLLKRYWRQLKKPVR-NH2 [SAAP-148] ?
Ans: 3.13

Q: For the substance LKRVWKRVFKLLKRYWRQLKKPKR-NH2 [SAAP-13] , what MIC S. epidermidis is on record?
Ans: 6.25

---

Tested on: Gram-positive bacteria (S. aureus, S. epidermidis)
PROTOCOL DETAILS: Geometric mean of MICs against Gram-positive bacteria
Assay type: cell-based
Set-up: unit not given here
Ends that are not written are not given here.
READOUT LABEL: GM to G+
Give the figure by itself; no unit, no explanation.

Q: What does the data say about its GM to G+? Entry: LKRVWKRVFKLLKRYWRQLKKPKR-NH2 [SAAP-13]
Ans: 17.68

Q: Would you mind telling me what GM to G+ value was observed for LKRVWKRVFKKLKRYWRQLKKPVR-NH2 [SAAP-6] ?
Ans: 6.24

Q: Sample LKRKWKRVFKLLKRYWRQLKKPVR-NH2 [SAAP-2] — what was its GM to G+?
Ans: 12.51

Q: Record request: GM to G+ value, item KKRVWKRVFKLLKRYWRQLKKPVR-NH2 [SAAP-1]
Ans: 12.51

Q: Consider the substance LKRVWKRVKKLLKRYWRQLKKPVR-NH2 [SAAP-5] and give its measured GM to G+.
Ans: 8.85

Q: Can you look up the measured GM to G+ of LKRVWKRVFKLLKRYKRQLKKPVR-NH2 [SAAP-9] for me?
Ans: 12.51

Q: Need GM to G+, item LKRVWKRVFKLLKRYWRQKKKPVR-NH2 [SAAP-11]
Ans: 12.51

Q: Look up GM to G+: LKRVWKRKFKLLKRYWRQLKKPVR-NH2 [SAAP-4]
Ans: 17.69

Q: Entry LKRVWKRVFKLLKRYWRQLKKKVR-NH2 [SAAP-12] : reported GM to G+ = ?
Ans: 12.5

Q: Field request: GM to G+ | item: LKRVWKRVFKLLKRYWRKLKKPVR-NH2 [SAAP-10]
Ans: 12.51

Q: Which GM to G+ reading was recorded for the substance LKRVWKRVFKLKKRYWRQLKKPVR-NH2 [SAAP-7] ?
Ans: 35.36

Q: State the recorded GM to G+ for this entry: LKRVWKRVFKLLKRKWRQLKKPVR-NH2 [SAAP-8]
Ans: 6.24

Q: Recorded GM to G+ for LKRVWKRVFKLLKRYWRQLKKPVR-NH2 [SAAP-148] , please?
Ans: 12.51

Q: Look up GM to G+: LKRVKKRVFKLLKRYWRQLKKPVR-NH2 [SAAP-3]
Ans: 17.69

Data provenance: paper PMC11546786
